Protocol: activity coefficient (dimensionless); of the first substance listed, at infinite dilution; xn = mol fraction of the nth substance listed
Test Context: 354.65 K; 101 kPa; Liquid; Chromatography; x1 = 0
// returns class 0 unless activity coefficient is strictly below 2, in which case class 1

API: query returns whether the compound falls strictly under 2 in activity coefficient. Query: c1ccsc1 [thiophene] + CCCCCC[n+]1ccn(C)c1.FC(F)(F)C(F)(F)[P-](F)(F)(F)(C(F)(F)C(F)(F)F)C(F)(F)C(F)(F)F
class 1

API: query returns whether the compound falls strictly under 2 in activity coefficient. Query: CCc1ccccc1 [ethylbenzene] + CCCCCC[n+]1ccn(C)c1.FC(F)(F)C(F)(F)[P-](F)(F)(F)(C(F)(F)C(F)(F)F)C(F)(F)C(F)(F)F
class 1

API: query returns whether the compound falls strictly under 2 in activity coefficient. Query: C=CCCCC [hex-1-ene] + CCCCCC[n+]1ccn(C)c1.FC(F)(F)C(F)(F)[P-](F)(F)(F)(C(F)(F)C(F)(F)F)C(F)(F)C(F)(F)F
class 0

API: query returns whether the compound falls strictly under 2 in activity coefficient. Query: CC(C)CC(C)(C)C [2,2,4-trimethylpentane] + CCCCCC[n+]1ccn(C)c1.FC(F)(F)C(F)(F)[P-](F)(F)(F)(C(F)(F)C(F)(F)F)C(F)(F)C(F)(F)F
class 0

API: query returns whether the compound falls strictly under 2 in activity coefficient. Query: CC(C)O [propan-2-ol] + CCCCCC[n+]1ccn(C)c1.FC(F)(F)C(F)(F)[P-](F)(F)(F)(C(F)(F)C(F)(F)F)C(F)(F)C(F)(F)F
class 1

API: query returns whether the compound falls strictly under 2 in activity coefficient. Query: CCCCCCCCCC [decane] + CCCCCC[n+]1ccn(C)c1.FC(F)(F)C(F)(F)[P-](F)(F)(F)(C(F)(F)C(F)(F)F)C(F)(F)C(F)(F)F
class 0

API: query returns whether the compound falls strictly under 2 in activity coefficient. Query: ClC(Cl)(Cl)Cl [tetrachloromethane] + CCCCCC[n+]1ccn(C)c1.FC(F)(F)C(F)(F)[P-](F)(F)(F)(C(F)(F)C(F)(F)F)C(F)(F)C(F)(F)F
class 1

API: query returns whether the compound falls strictly under 2 in activity coefficient. Query: CCCCO [butan-1-ol] + CCCCCC[n+]1ccn(C)c1.FC(F)(F)C(F)(F)[P-](F)(F)(F)(C(F)(F)C(F)(F)F)C(F)(F)C(F)(F)F
class 1

API: query returns whether the compound falls strictly under 2 in activity coefficient. Query: CCC=O [propanal] + CCCCCC[n+]1ccn(C)c1.FC(F)(F)C(F)(F)[P-](F)(F)(F)(C(F)(F)C(F)(F)F)C(F)(F)C(F)(F)F
class 1

API: query returns whether the compound falls strictly under 2 in activity coefficient. Query: c1ccncc1 [pyridine] + CCCCCC[n+]1ccn(C)c1.FC(F)(F)C(F)(F)[P-](F)(F)(F)(C(F)(F)C(F)(F)F)C(F)(F)C(F)(F)F
class 1

API: query returns whether the compound falls strictly under 2 in activity coefficient. Query: CC#N [acetonitrile] + CCCCCC[n+]1ccn(C)c1.FC(F)(F)C(F)(F)[P-](F)(F)(F)(C(F)(F)C(F)(F)F)C(F)(F)C(F)(F)F
class 1

API: query returns whether the compound falls strictly under 2 in activity coefficient. Query: C1CCCCC1 [cyclohexane] + CCCCCC[n+]1ccn(C)c1.FC(F)(F)C(F)(F)[P-](F)(F)(F)(C(F)(F)C(F)(F)F)C(F)(F)C(F)(F)F
class 0

API: query returns whether the compound falls strictly under 2 in activity coefficient. Query: Cc1ccc(C)cc1 [1,4-dimethylbenzene] + CCCCCC[n+]1ccn(C)c1.FC(F)(F)C(F)(F)[P-](F)(F)(F)(C(F)(F)C(F)(F)F)C(F)(F)C(F)(F)F
class 1

API: query returns whether the compound falls strictly under 2 in activity coefficient. Query: CCCCCCCCCCC [undecane] + CCCCCC[n+]1ccn(C)c1.FC(F)(F)C(F)(F)[P-](F)(F)(F)(C(F)(F)C(F)(F)F)C(F)(F)C(F)(F)F
class 0

API: query returns whether the compound falls strictly under 2 in activity coefficient. Query: ClCCl [dichloromethane] + CCCCCC[n+]1ccn(C)c1.FC(F)(F)C(F)(F)[P-](F)(F)(F)(C(F)(F)C(F)(F)F)C(F)(F)C(F)(F)F
class 1

API: query returns whether the compound falls strictly under 2 in activity coefficient. Query: CCN(CC)CC [triethylamine] + CCCCCC[n+]1ccn(C)c1.FC(F)(F)C(F)(F)[P-](F)(F)(F)(C(F)(F)C(F)(F)F)C(F)(F)C(F)(F)F
class 1

Origin of the recorded values: the NIST ThermoML archive (doi:10.1021/je200195q)
